Hello, the source for this data is ChEMBL document CHEMBL5380839, in case you need it.

molecular target: Integrin alpha-M/beta-2 (Homo sapiens, UniProt P05107+P11215); experiment: Agonist activity at alphaMbeta2 integrin receptor in human HL-60 cells assessed as inhibition of fibrinogen-induced cell adhesion pre-incubated for 30 mins followed by 30 mins incubation in fibrinogen coated wells by fluorescence plate reader assay
Sequence (P05107 23-769 limits assumed, other chains not shown): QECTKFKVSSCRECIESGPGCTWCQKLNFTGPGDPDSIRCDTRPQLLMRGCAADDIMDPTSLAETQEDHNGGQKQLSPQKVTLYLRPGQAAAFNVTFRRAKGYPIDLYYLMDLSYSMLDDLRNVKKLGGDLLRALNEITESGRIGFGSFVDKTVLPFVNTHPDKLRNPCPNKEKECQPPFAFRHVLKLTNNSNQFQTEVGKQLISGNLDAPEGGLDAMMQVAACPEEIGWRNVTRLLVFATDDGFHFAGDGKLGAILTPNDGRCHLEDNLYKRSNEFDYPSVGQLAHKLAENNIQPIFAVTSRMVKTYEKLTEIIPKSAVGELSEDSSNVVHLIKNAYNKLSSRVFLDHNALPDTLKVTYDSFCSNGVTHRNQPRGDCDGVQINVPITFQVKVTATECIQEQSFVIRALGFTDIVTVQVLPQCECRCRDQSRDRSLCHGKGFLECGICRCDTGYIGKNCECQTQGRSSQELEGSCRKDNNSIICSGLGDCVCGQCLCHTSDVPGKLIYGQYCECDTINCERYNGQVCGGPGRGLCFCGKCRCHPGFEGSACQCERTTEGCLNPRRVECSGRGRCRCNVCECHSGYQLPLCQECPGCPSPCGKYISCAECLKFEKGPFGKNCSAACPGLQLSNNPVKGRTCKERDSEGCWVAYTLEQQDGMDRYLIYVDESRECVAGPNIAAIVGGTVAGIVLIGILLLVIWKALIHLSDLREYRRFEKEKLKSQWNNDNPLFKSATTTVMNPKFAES
pEC50: −log10 of the molar value.
Items are presented alongside their recorded pEC50.
attribute-measured: pEC50

INSERT INTO assay_data (compound, recorded_result) VALUES
  ('Cc1ccccc1NC(=O)N1C(=O)CC1CC(=O)O (configuration not stated)', '< 5.30'),
  ('Cc1ccccc1NC(=O)N1C(=O)CC1CC(=O)NCC(=O)O (configuration not stated)', '< 5.30');
